Biological target: T1, dog NMUR1-ATG (dog, UniProt A0A8I3S7S8 1-422)
T1 sequence: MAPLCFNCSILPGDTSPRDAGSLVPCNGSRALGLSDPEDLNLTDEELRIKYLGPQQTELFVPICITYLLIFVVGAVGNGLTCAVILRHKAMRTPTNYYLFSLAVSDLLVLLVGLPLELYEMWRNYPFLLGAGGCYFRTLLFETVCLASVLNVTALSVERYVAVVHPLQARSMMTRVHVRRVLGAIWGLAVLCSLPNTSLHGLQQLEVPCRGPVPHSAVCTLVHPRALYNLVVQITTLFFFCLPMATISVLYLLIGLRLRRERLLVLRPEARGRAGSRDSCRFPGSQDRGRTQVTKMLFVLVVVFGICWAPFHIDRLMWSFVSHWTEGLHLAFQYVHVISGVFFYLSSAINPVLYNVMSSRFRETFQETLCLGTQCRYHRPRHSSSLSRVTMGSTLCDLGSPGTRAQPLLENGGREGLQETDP
Assay: cell-based or functional assay
Groups on a side chain read outwards from the residue. cholesteroyl = cholesterol group linked to a cysteine residue via the side-chain thiol
readout_name: % Activity (maximum response at 1 µM compared to the human NMU-25 response) (%)
// return numeric value only (unit: %, not printed)

I have this binder here, Ac-C(cholesteroyl)ILQRGSGTAAVDFTKKDHTATWGRPFFLFRPRN-NH2 [NMS2 (Ac-C3ILQRGSGTAAVDFTKKDHTATWGRPFFLFRPRN-CONH2)] , and I need its recorded % Activity (maximum response at 1 µM compared to the human NMU-25 response).
46

What do you get for H-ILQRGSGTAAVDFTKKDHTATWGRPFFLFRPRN-NH2 [native human Neuromedin S peptide (NMS)] ?
100

What do you get for Ac-C([maleimide-PEG 40 kDa])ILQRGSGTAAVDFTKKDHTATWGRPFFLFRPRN-NH2 [NMS4 (Ac-C4ILQRGSGTAAVDFTKKDHTATWGRPFFLFRPRN-CONH2)] ?
81

What do you get for Ac-C([maleimide-(PEG)2 40 kDa])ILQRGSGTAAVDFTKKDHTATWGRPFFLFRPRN-NH2 [NMS1 (Ac-C2ILQRGSGTAAVDFTKKDHTATWGRPFFLFRPRN-CONH2)] ?
97
